# assay_system: mGluR5 receptor (Sus scrofa)
# test_protocol: Affinity for the mGluR5 receptor: inhibition of 3[H]-MPEP binding in pig brain homogenate
# particulars: 10 μM compound, 5 nM 3[H]-MPEP, read-out: mGluR5 receptor inhibition of ^3[H]-MPEP binding [10 μM] in % at a concentration of the example compounds of 10 μM
Tag: 1 if measured inhibition at 10 µM is not below 70%, 0 if it is.

Kindly determine if inhibition at 10 µM recorded for Cc1cccc(C#Cc2cccc(-c3nc4ccccn4c3NC(C)(C)CC(C)(C)C)c2)n1 is above or exactly 70%. 0

Would you say Cc1cccn2c(Nc3ccco3)c(-c3ccc(C#Cc4ccccc4)o3)nc12 shows inhibition at 10 µM at minimum 70%? 1

Given Fc1ccc(CNc2c(-c3ccc(C#Cc4ccccc4)o3)nc3ccc(Cl)cn23)cc1 , state whether its inhibition at 10 µM is at least 70%. 0

Check this compound for inhibition at 10 µM at or above 70%: Cc1ccn2c(Nc3ccc(F)cc3)c(-c3ccc(C#Cc4ccccn4)o3)nc2c1 0

Exam item: decide whether the reported inhibition at 10 µM for COc1cccc(CNc2c(-c3ccc(C#Cc4ccccc4)s3)nc3nc(C)ccn23)c1 is at least 70%. 1

Assess whether reported inhibition at 10 µM for COc1cccc(CNc2c(-c3ccc(C#Cc4ccccc4)s3)nc3c(OCc4ccccc4)cccn23)c1 sits at 70% or higher. 1

Say whether CCc1ccn2c(NC(C)(C)CC(C)(C)C)c(-c3ccc(C#Cc4ccccn4)s3)nc2c1 shows inhibition at 10 µM of 70% or more. 1

Identify whether the reported inhibition at 10 µM of the following compound is 70% or greater: COc1ccc(CNc2c(-c3ccc(C#Cc4ccccc4)s3)nc3c(OCc4ccccc4)cccn23)cc1 1

* * *

Exercise: state measured inhibition at 10 µM for each of the molecules provided.
# assay_system: mGluR5 receptor (Sus scrofa, UniProt I3LUI7)
# Sequence (I3LUI7 19-1212): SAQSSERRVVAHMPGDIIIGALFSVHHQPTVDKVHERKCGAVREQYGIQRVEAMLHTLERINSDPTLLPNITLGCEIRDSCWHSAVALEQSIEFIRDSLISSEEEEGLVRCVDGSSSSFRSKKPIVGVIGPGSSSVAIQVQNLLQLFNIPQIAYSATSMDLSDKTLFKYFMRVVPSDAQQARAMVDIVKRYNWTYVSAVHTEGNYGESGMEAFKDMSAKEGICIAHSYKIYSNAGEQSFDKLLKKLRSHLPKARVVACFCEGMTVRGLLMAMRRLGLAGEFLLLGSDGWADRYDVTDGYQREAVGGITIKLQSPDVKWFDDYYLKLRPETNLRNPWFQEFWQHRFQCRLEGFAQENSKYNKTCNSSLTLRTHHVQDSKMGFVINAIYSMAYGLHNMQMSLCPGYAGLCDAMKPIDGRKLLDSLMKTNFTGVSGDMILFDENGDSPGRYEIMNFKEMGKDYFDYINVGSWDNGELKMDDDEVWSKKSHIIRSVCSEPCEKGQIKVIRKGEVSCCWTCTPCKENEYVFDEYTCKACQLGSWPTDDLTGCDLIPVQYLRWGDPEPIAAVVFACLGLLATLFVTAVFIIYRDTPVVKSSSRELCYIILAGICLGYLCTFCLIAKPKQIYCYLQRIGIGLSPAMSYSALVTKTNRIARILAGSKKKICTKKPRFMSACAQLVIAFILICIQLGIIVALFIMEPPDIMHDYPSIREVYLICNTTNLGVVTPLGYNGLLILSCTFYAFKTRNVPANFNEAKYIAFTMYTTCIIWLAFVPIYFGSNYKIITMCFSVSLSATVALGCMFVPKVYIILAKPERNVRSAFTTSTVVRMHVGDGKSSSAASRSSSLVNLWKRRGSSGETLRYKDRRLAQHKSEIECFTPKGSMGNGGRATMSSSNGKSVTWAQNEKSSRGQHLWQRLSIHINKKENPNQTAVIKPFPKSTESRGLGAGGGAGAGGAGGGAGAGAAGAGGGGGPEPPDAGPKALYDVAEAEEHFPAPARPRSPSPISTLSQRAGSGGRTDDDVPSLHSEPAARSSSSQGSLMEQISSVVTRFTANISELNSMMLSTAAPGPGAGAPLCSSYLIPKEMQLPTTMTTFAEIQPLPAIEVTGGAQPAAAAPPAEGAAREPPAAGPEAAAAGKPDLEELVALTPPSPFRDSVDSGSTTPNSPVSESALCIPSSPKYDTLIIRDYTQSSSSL
# test_protocol: Affinity for the mGluR5 receptor: inhibition of 3[H]-MPEP binding in pig brain homogenate
# particulars: 10 μM compound, 5 nM 3[H]-MPEP, read-out: mGluR5 receptor inhibition of ^3[H]-MPEP binding [10 μM] in % at a concentration of the example compounds of 10 μM
Express your answer in %, writing the number without its unit.

Need inhibition at 10 µM, item CC(C)c1ccn2c(NCc3cccc(C(F)(F)F)c3)c(-c3ccc(C#Cc4ccccc4)s3)nc2c1 [Example 54] 69

inhibition at 10 µM lookup needed for COc1cccc(CCNc2c(-c3cc(C#Cc4ccccc4)cs3)nc3nc(C)cc(C)n23)c1 [Example 196] , thanks. 68

Which inhibition at 10 µM is listed for CC(C)(C)Nc1c(-c2cccc(C#Cc3ccccn3)c2)nc2ccccn12 [Example 261] ? 79

What value of measured inhibition at 10 µM is listed for C(#Cc1ccccn1)c1cccc(-c2nc3ccccn3c2NC2CCCC2)c1 [Example 260] ? 64

Name the recorded inhibition at 10 µM for Cc1ccc2nc(-c3ccc(C#Cc4ccccc4)s3)c(NCC3CCCCC3)n2c1 [Example 3] . 95

Would you kindly share the measured inhibition at 10 µM for Cc1cc(Br)c2nc(-c3cc(C#Cc4ccccc4)cs3)c(NCc3ccc(Cl)cc3)n2c1 [Example 232] ? 75

Fill in the blank: the reported inhibition at 10 µM of CC(C)(C)CC(C)(C)Nc1c(-c2ccc(C#Cc3ccccc3)nc2)nc2ccccn12 [Example 284] is ____. 68

Consider the molecule shown here: C(#Cc1csc(-c2nc3cc(-c4ccccc4)ccn3c2NCCc2cccs2)c1)c1ccccc1 [Example 235] What is its recorded inhibition at 10 µM? 32

Fill blank: measured inhibition at 10 µM of the molecule COc1cccc(CNc2c(-c3ccc(C#Cc4ccccc4)s3)nc3cnccn23)c1 [Example 26] is ____. 97

Can you look up the measured inhibition at 10 µM of C(#Cc1csc(-c2nc3cnccn3c2NCC2CCCCC2)c1)c1ccccc1 [Example 206] for me? 63
